Heads up, these compounds all have pKi values measured for 5-hydroxytryptamine receptor 2A (Rattus norvegicus).
pKi: −log10 of the molar value.

* O=C(NCCCN1CCN(c2ccccc2Cl)CC1)c1ccccn1 | 6.12
* COc1ccccc1N1CCN(CCCNC(=O)c2ccccn2)CC1 | < 5.00
* N#Cc1ccccc1N1CCN(CCCNC(=O)c2ccccn2)CC1 | < 5.00
* O=C(NCCN1CCN(C(=O)c2ccco2)CC1)c1ccccn1 | < 5.00
* O=C(NCCCN1CCN(c2ccc(Cl)cc2)CC1)c1ccccn1 | 6.43

// assay 5-hydroxytryptamine receptor 2A (Rattus norvegicus), entry O=C(NCCN1CCN(c2cccc3ccccc23)CC1)c1ccccn1 , pKi value = 7.04

// assay 5-hydroxytryptamine receptor 2A (Rattus norvegicus), entry O=C(NCCN1CCN(c2ncccn2)CC1)c1ccccn1 , pKi value = < 5.00

// assay 5-hydroxytryptamine receptor 2A (Rattus norvegicus), entry O=C(NCCN1CCN(c2ccccn2)CC1)c1ccccn1 , pKi value = < 5.00

// assay 5-hydroxytryptamine receptor 2A (Rattus norvegicus), entry O=C(NCCCN1CCN(c2ccc(Cl)c(Cl)c2)CC1)c1ccccn1 , pKi value = 7.04

// assay 5-hydroxytryptamine receptor 2A (Rattus norvegicus), entry Cc1cccc(N2CCN(CCCNC(=O)c3ccccn3)CC2)c1C , pKi value = < 5.00

// assay 5-hydroxytryptamine receptor 2A (Rattus norvegicus), entry O=C(NCCN1CCN(c2ccccc2F)CC1)c1ccccn1 , pKi value = < 5.00

// assay 5-hydroxytryptamine receptor 2A (Rattus norvegicus), entry COc1ccc(N2CCN(CCCNC(=O)c3ccccn3)CC2)cc1 , pKi value = < 5.00

// assay 5-hydroxytryptamine receptor 2A (Rattus norvegicus), entry O=C(NCCCN1CCN(c2ncccn2)CC1)c1ccccn1 , pKi value = 7.77

// assay 5-hydroxytryptamine receptor 2A (Rattus norvegicus), entry O=C(NCCCN1CCN(C(c2ccccc2)c2ccc(Cl)cc2)CC1)c1ccccn1 (stereo unspecified) , pKi value = 6.14

// assay 5-hydroxytryptamine receptor 2A (Rattus norvegicus), entry O=C(NCCCN1CCN(c2cccc(C(F)(F)F)c2)CC1)c1ccccn1 , pKi value = < 5.00

// assay 5-hydroxytryptamine receptor 2A (Rattus norvegicus), entry O=C(NCCN1CCN(Cc2ccc3c(c2)OCO3)CC1)c1ccccn1 , pKi value = < 5.00

Numbers sourced from ChEMBL document CHEMBL4177580.
